Test system: RS4;11 cells
Experiment: Cell viability assay, MTS, 48 h, RS4;11
Format: cell-based
Settings: Homo sapiens, RS4-11, 48 h, 48 hours, read-out: IC50 (48 hours) RS4;11
pIC50: −log10 of the molar value.
assayMetric: pIC50

- compound: "Cc1ncsc1-c1ccc([C@H](C)NC(=O)[C@@H]2C[C@@H](O)CN2C(=O)[C@@H](NC(=O)CCCCCCCCC(=O)N2CCN(CC3(C)CCC(c4ccc(Cl)cc4)=C(CN4CCN(c5ccc(C(=O)NS(=O)(=O)c6ccc(N[C@H](CCN7CCOCC7)CSc7ccccc7)c(S(=O)(=O)C(F)(F)F)c6)cc5)CC4)C3)CC2)C(C)(C)C)cc1 (some centres unmarked)"
  systemUnderTest: "RS4;11 cells"
  assayMetric: "pIC50"
  value: "6.82 to 7.30"
- compound: "Cc1ncsc1-c1ccc([C@H](C)NC(=O)[C@@H]2C[C@@H](O)CN2C(=O)[C@@H](NC(=O)CCCCCC(=O)N2CCCN(CC3(C)CCC(c4ccc(Cl)cc4)=C(CN4CCN(c5ccc(C(=O)NS(=O)(=O)c6ccc(N[C@H](CCN7CCOCC7)CSc7ccccc7)c(S(=O)(=O)C(F)(F)F)c6)cc5)CC4)C3)CC2)C(C)(C)C)cc1 (some centres unmarked)"
  systemUnderTest: "RS4;11 cells"
  assayMetric: "pIC50"
  value: "> 7.30"

* * *

Tested on: RS4;11 cells
Experiment: Cell viability assay, MTS, 48 h, RS4;11
Format: cell-based
Conditions: Homo sapiens, RS4-11, 48 h, 48 hours, read-out: IC50 (48 hours) RS4;11
assayMetric: IC50

- compound: "Cc1ncsc1-c1ccc([C@H](C)NC(=O)[C@@H]2C[C@@H](O)CN2C(=O)[C@@H](NC(=O)CCCCCC(=O)N2CCN(CCN(C)CC3(C)CCC(c4ccc(Cl)cc4)=C(CN4CCN(c5ccc(C(=O)NS(=O)(=O)c6ccc(N[C@H](CCN7CCOCC7)CSc7ccccc7)c(S(=O)(=O)C(F)(F)F)c6)cc5)CC4)C3)CC2)C(C)(C)C)cc1 (some centres unmarked) [compound 59]"
  value: "< 50 nM"
- compound: "Cc1ncsc1-c1ccc([C@H](C)NC(=O)[C@@H]2C[C@@H](O)CN2C(=O)[C@@H](NC(=O)COCCOCCOCCOCC(=O)NCC2(C)CCC(c3ccc(Cl)cc3)=C(CN3CCN(c4ccc(C(=O)NS(=O)(=O)c5ccc(N[C@H](CCN6CCOCC6)CSc6ccccc6)c(S(=O)(=O)C(F)(F)F)c5)cc4)CC3)C2)C(C)(C)C)cc1 (some centres unmarked) [degrader #9]"
  value: "150 to 500 nM"
- compound: "Cc1ncsc1-c1ccc([C@H](C)NC(=O)[C@@H]2C[C@@H](O)CN2C(=O)[C@@H](NC(=O)CCCCCCC(=O)NC2CCN(CC3(C)CCC(c4ccc(Cl)cc4)=C(CN4CCN(c5ccc(C(=O)NS(=O)(=O)c6ccc(N[C@H](CCN7CCOCC7)CSc7ccccc7)c(S(=O)(=O)C(F)(F)F)c6)cc5)CC4)C3)CC2)C(C)(C)C)cc1 (some centres unmarked) [degrader #38]"
  value: "< 50 nM"
- compound: "Cc1ncsc1-c1ccc([C@H](C)NC(=O)[C@@H]2C[C@@H](O)CN2C(=O)[C@@H](NC(=O)CN2CCN(CC3(C)CCC(c4ccc(Cl)cc4)=C(CN4CCN(c5ccc(C(=O)NS(=O)(=O)c6ccc(N[C@H](CCN7CCOCC7)CSc7ccccc7)c(S(=O)(=O)C(F)(F)F)c6)cc5)CC4)C3)CC2)C(C)(C)C)cc1 (some centres unmarked) [compound 67]"
  value: "50 to 150 nM"
- compound: "Cc1ncsc1-c1ccc([C@H](C)NC(=O)[C@@H]2C[C@@H](O)CN2C(=O)[C@@H](NC(=O)CCCCCCC(=O)N2CCN(CC3(C)CCC(c4ccc(Cl)cc4)=C(CN4CCN(c5ccc(C(=O)NS(=O)(=O)c6ccc(N[C@H](CCN7CCOCC7)CSc7ccccc7)c(S(=O)(=O)C(F)(F)F)c6)cc5)CC4)C3)CC2)C(C)(C)C)cc1 (some centres unmarked) [degrader #17]"
  value: "< 50 nM"

* * *

Listed compounds paired with reported IC50
System: RS4;11 cells
Test: Cell viability assay, MTS, 48 h, RS4;11
Format: cell-based
Settings: Homo sapiens, RS4-11, 48 h, 48 h, read-out: RS4, 11 IC50 (nM, 48 h)
assayMetric: IC50

- compound: "Cc1ncsc1-c1ccc([C@H](C)NC(=O)[C@@H]2C[C@@H](O)CN2C(=O)[C@@H](NC(=O)CCCCCCCCC(=O)NC[C@]2(C)CCC(c3ccc(Cl)cc3)=C(CN3CCN(c4ccc(C(=O)NS(=O)(=O)c5ccc(N[C@H](CCN6CCOCC6)CSc6ccccc6)c(S(=O)(=O)C(F)(F)F)c5)cc4)CC3)C2)C(C)(C)C)cc1"
  systemUnderTest: "RS4;11 cells"
  assayMetric: "IC50"
  value: "9.9 nM"
- compound: "Cc1ncsc1-c1ccc([C@H](C)NC(=O)[C@@H]2C[C@@H](O)CN2C(=O)[C@@H](NC(=O)CCCCCCCCC(=O)NCC2(C)CCC(c3ccc(Cl)cc3)=C(CN3CCN(c4ccc(C(=O)NS(=O)(=O)c5ccc(N[C@H](CCN6CCOCC6)CSc6ccccc6)c(S(=O)(=O)C(F)(F)F)c5)cc4)CC3)C2)C(C)(C)C)cc1 (stereo partly shown)"
  systemUnderTest: "RS4;11 cells"
  assayMetric: "IC50"
  value: "22.2 nM"
- compound: "Cc1ncsc1-c1ccc([C@H](C)NC(=O)[C@@H]2C[C@@H](O)CN2C(=O)[C@@H](NC(=O)CCCCCCCCC(=O)NC[C@@]2(C)CCC(c3ccc(Cl)cc3)=C(CN3CCN(c4ccc(C(=O)NS(=O)(=O)c5ccc(N[C@H](CCN6CCOCC6)CSc6ccccc6)c(S(=O)(=O)C(F)(F)F)c5)cc4)CC3)C2)C(C)(C)C)cc1"
  systemUnderTest: "RS4;11 cells"
  assayMetric: "IC50"
  value: "497 nM"
- compound: "CC1(C)CCC(c2ccc(Cl)cc2)=C(CN2CCN(c3ccc(C(=O)NS(=O)(=O)c4ccc(N[C@H](CCN5CCOCC5)CSc5ccccc5)c(S(=O)(=O)C(F)(F)F)c4)cc3)CC2)C1 [ABT-263, reference compound]"
  systemUnderTest: "RS4;11 cells"
  assayMetric: "IC50"
  value: "35 nM"

* * *

System: RS4;11 cells
Experiment: Cell viability assay, MTS, 48 h, RS4;11
Assay type: cell-based
Settings: Homo sapiens, RS4-11, 48 h, 48 hours, read-out: IC50 (48 hours) RS4;11
pIC50: −log10 of the molar value.
Listed compounds paired with reported pIC50

- compound: "Cc1ncsc1-c1ccc([C@H](C)NC(=O)[C@@H]2C[C@@H](O)CN2C(=O)[C@@H](NC(=O)CCCCC(=O)N2CCN(CC3(C)CCC(c4ccc(Cl)cc4)=C(CN4CCN(c5ccc(C(=O)NS(=O)(=O)c6ccc(N[C@H](CCN7CCOCC7)CSc7ccccc7)c(S(=O)(=O)C(F)(F)F)c6)cc5)CC4)C3)CC2)C(C)(C)C)cc1 (stereo partly drawn)"
  systemUnderTest: "RS4;11 cells"
  pIC50: "6.82 to 7.30"
- compound: "Cc1ncsc1-c1ccc([C@H](C)NC(=O)[C@@H]2C[C@@H](O)CN2C(=O)[C@@H](NC(=O)CCCC(=O)N2CCN(CC3(C)CCC(c4ccc(Cl)cc4)=C(CN4CCN(c5ccc(C(=O)NS(=O)(=O)c6ccc(N[C@H](CCN7CCOCC7)CSc7ccccc7)c(S(=O)(=O)C(F)(F)F)c6)cc5)CC4)C3)CC2)C(C)(C)C)cc1 (stereo partly drawn)"
  systemUnderTest: "RS4;11 cells"
  pIC50: "6.82 to 7.30"
- compound: "Cc1ncsc1-c1ccc([C@H](C)NC(=O)[C@@H]2C[C@@H](O)CN2C(=O)[C@@H](NC(=O)CCCCC(=O)N2CCN(CCN(C)CC3(C)CCC(c4ccc(Cl)cc4)=C(CN4CCN(c5ccc(C(=O)NS(=O)(=O)c6ccc(N[C@H](CCN7CCOCC7)CSc7ccccc7)c(S(=O)(=O)C(F)(F)F)c6)cc5)CC4)C3)CC2)C(C)(C)C)cc1 (stereo partly drawn)"
  systemUnderTest: "RS4;11 cells"
  pIC50: "6.82 to 7.30"
- compound: "Cc1ncsc1-c1ccc([C@H](C)NC(=O)[C@@H]2C[C@@H](O)CN2C(=O)[C@@H](NC(=O)CCCCCC(=O)N2CC3(CCN(CC4(C)CCC(c5ccc(Cl)cc5)=C(CN5CCN(c6ccc(C(=O)NS(=O)(=O)c7ccc(N[C@H](CCN8CCOCC8)CSc8ccccc8)c(S(=O)(=O)C(F)(F)F)c7)cc6)CC5)C4)CC3)C2)C(C)(C)C)cc1 (stereo partly drawn)"
  systemUnderTest: "RS4;11 cells"
  pIC50: "> 7.30"
- compound: "CC1(CNC(=O)CCCCCNc2cccc3c2C(=O)N(C2CCC(=O)NC2=O)C3=O)CCC(c2ccc(Cl)cc2)=C(CN2CCN(c3ccc(C(=O)NS(=O)(=O)c4ccc(N[C@H](CCN5CCOCC5)CSc5ccccc5)c(S(=O)(=O)C(F)(F)F)c4)cc3)CC2)C1 (stereo partly drawn)"
  systemUnderTest: "RS4;11 cells"
  pIC50: "> 7.30"
- compound: "Cc1ncsc1-c1ccc([C@@H](C)NC(=O)[C@@H]2C[C@@H](O)CN2C(=O)[C@@H](NC(=O)CCCCCCCCCN2CCC(c3ccc(Cl)cc3)=C(CN3CCN(c4ccc(C(=O)NS(=O)(=O)c5ccc(N[C@H](CCN6CCOCC6)CSc6ccccc6)c(S(=O)(=O)C(F)(F)F)c5)cc4)CC3)C2)C(C)(C)C)cc1"
  systemUnderTest: "RS4;11 cells"
  pIC50: "< 6.30"

src = patent US20220169628A1
